Test protocol: In vivo pharmacokinetics, cyno
Condition details: cynomolgus monkey, in vivo, 5 mg/kg; Cyno; PO 5 mpk
Endpoint label: Tmax (h)
Note: unit h is implicit; provide only the numeric part.

Quick one: Tmax for CNc1cc(Nc2cccn(-c3ccccn3)c2=O)nc2c(C(=O)N[C@@H]3CC[C@H]3OC)cnn12 ?
3

----------
Test protocol: clinical
Condition details: human, in vivo, 75 mg
Endpoint label: AUC(0-inf)

Quick one: AUC(0-inf) for CNc1cc(Nc2cccn(-c3ccccn3)c2=O)nc2c(C(=O)N[C@@H]3CC[C@H]3OC)cnn12 ?
589 to 8370 ng·h/mL

----------
Assayed target: CYP450 2D6 (Homo sapiens)
Sequence (P10635 whole entry): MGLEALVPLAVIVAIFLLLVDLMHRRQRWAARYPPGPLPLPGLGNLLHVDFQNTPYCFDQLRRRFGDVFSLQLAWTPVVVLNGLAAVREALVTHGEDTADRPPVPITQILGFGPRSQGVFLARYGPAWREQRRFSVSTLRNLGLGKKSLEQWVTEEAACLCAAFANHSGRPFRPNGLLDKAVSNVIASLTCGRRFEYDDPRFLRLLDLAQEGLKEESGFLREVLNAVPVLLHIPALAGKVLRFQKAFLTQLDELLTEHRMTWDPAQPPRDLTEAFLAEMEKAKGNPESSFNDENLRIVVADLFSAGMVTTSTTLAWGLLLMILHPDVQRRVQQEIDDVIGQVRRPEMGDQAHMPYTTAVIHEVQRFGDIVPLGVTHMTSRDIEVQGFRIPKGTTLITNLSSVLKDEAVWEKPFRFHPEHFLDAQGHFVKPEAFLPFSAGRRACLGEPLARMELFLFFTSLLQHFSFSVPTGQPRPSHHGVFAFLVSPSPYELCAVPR
Endpoint label: IC50

Quick one: IC50 for CNc1cc(Nc2cccn(-c3ccccn3)c2=O)nc2c(C(=O)N[C@@H]3CC[C@H]3OC)cnn12 ?
> 30 µM
